Data origin: PubChem BioAssay (NCI)

Here, each record is paired with measured growth inhibition data.
# ASSAY_NAME: NCI Yeast Anticancer Drug Screen. Data for the bub3 strain (AID 167)
# PARTICULARS: S. cerevisiae bub3 mutant strain, at 50.0 µM (retest, dose inferred, filed as 5.0), active compounds read high
Compounds without any hit were thinned out: in the full panel of roughly 79,000, 15% have a hit.
The reply should be a number in %, with the unit left off.

O=C(OCC1CCCO1)N(c1ccccc1)c1ccccc1 (stereo not drawn) = 16
CC(=O)NC1CCCCC1c1ccc(C2CCCCC2NC(C)=O)cc1 (stereo not drawn) = 1
CCCCCCCCNS(=O)(=O)c1ccc(N)cc1 = 0
CCOC(=O)C1(C#N)C(c2ccccc2)CC(O)(c2ccc([N+](=O)[O-])cc2)C(C(=O)c2ccc([N+](=O)[O-])cc2)C1c1ccccc1 (stereo not drawn) = 2
CC(=O)N(C)c1ccc(/C=C2\C=Cc3ccccc32)cc1 = 94

## Task What growth inhibition value was documented for this compound, O=C1CSC(c2c[nH]c3ccccc23)N1c1cccc(Cl)c1 (stereo not drawn) ?
## Result 97

## Task Need growth inhibition of CC(SC1=CC(=O)c2c(Cl)ccc(O)c2C1=O)C(=O)O (stereo not drawn) , thanks.
## Result 17

## Task Please give the measured growth inhibition for this compound: Clc1ccc2nc3ccccc3nc2c1
## Result 78

## Task // query growth inhibition value for entry COc1ccc(C(c2c(O)c3ccccc3oc2=O)N2CCOCC2)cc1 (stereo not drawn)
## Result 22

## Task Name the recorded growth inhibition for CCCCCCCCCCCC[S+](C)C .
## Result 74

## Task Param item = O=C1CSC(c2ccccc2O)N1c1ccc(-n2c(-c3ccccc3)nc3ccccc3c2=O)cc1 (stereo not drawn) ; retrieve measured growth inhibition.
## Result 56

## Task Please report the recorded growth inhibition for CC(CN(C)C)C(/C=C/c1ccc(Cl)cc1)=N\NC(=O)c1ccccc1 (stereo not drawn) .
## Result -10

## Task Which growth inhibition value belongs to NC(=S)N/N=C/c1ccc([N+](=O)[O-])o1 ?
## Result 45

## Task Could you tell me which growth inhibition is on file for CC1(C)CC(=O)C2=C(C1)OC1=C(C(=O)CC(C)(C)C1)C2CC(c1ccccc1)c1ccc(O)c(O)c1O (stereo not drawn) ?
## Result -23

## Task For the compound shown here, CC(=O)OC[C@@]1(C)[C@@H]2CC[C@]3(C)[C@H](C(=O)C=C4[C@@H]5CC(C)(C)CC[C@]5(C(=O)O)CC[C@]43C)[C@@]2(C)CC[C@@H]1OC(C)=O , give the reported growth inhibition.
## Result 91

## Task Return reported growth inhibition; argument: COC(=O)c1c(C(N)=O)c(C)n(NC(=O)Nc2ccccc2)c1C
## Result 92

## Task Quick one: growth inhibition for Cc1ccc(C)c(N2C(=O)C(=O)c3c(C)ccc(C)c32)c1 ?
## Result 10

## Task Fill in: growth inhibition of CCCCCCCCCCCCCC/C(=C/OCC[N+](C)(C)C)OC(C)=O (tested in a mixture with another compound) is ___
## Result 99
